# Test system: THP-1 cells
# Procedure Details: Cytotoxicity assay, THP-1 cells (CellTiter 96 AQueous One)
# Setup Conditions: read-out: Cytotoxicity THP-1 cells CC50; 24 h
Measured Property: CC50 (µM)
Expressed in µM, but write only the number.

# lookup: THP-1 cells CC50, key = NC(=S)COc1cccc(Cl)c1 [Fragment F13, 2-(3-Chlorophenoxy) ethanethioamide]
656

====

Measured CC50 at 24 h, listed per entry.
# Procedure Details: Cytotoxicity assay, HepG2 cells (CellTiter 96 AQueous One)
# Setup Conditions: human, HepG2 cells

Below: 3 compounds and their reported CC50 at 24 h.
In [3]: df
Out[3]:
                                   compound  test_result
0       NCc1cccc(N2CCCCC2)n1 [Fragment F17]       455 µM
1    O=C(O)CCc1c[nH]c2ccccc12 [Fragment F1]    > 1000 µM
2  Cc1cc(C(=O)O)c(C)n1Cc1cccs1 [Fragment F16]       766 µM

Identify measured CC50 at 24 h corresponding to Cc1oc(-c2ccc(Cl)cc2)cc1C(=O)N(C)C [Fragment F8]
589 µM

Identify measured CC50 at 24 h corresponding to O=C(O)c1csc2ccc(Cl)cc12 [Fragment F25]
765 µM

Identify measured CC50 at 24 h corresponding to Cc1ncc(C(N)=S)[nH]1 [Fragment F3, 2-Methyl-1H-imidazole-4-carbothioamide]
> 1000 µM

Identify measured CC50 at 24 h corresponding to O=C(O)c1ccc(-c2cccs2)s1 [Fragment F20, [2,2′-Bithiophene]-5-carboxylic acid]
765 µM

Identify measured CC50 at 24 h corresponding to O=C(O)c1ccc(-c2ccsc2)cc1 [Fragment F26, 4-(3-Thienyl)benzoic acid]
944 µM

Identify measured CC50 at 24 h corresponding to OCc1csc(-c2ccc(C(F)(F)F)cc2)n1 [Fragment F28]
> 1000 µM

Identify measured CC50 at 24 h corresponding to CSc1cc(-c2ccc(F)cc2)n[nH]1 [Fragment F11]
945 µM

====

Measured MIC50, listed per entry.
# Test system: M. smegmatis
# Procedure Details: Spectrum of activity: M. smegmatis growth inhibition
# Type: cell-based
# Setup Conditions: Mycolicibacterium smegmatis, 24 h; 1 day; read-out: Antibacterial activity (MIC50) M. smegmatis
Expressed in µM, but write only the number.

Below: 6 compounds and their reported MIC50.
>>> print(df.to_string())
                                   compound  tested_target  result_unit  test_result
0  COC(=O)c1cc2ccccc2cn1 [Fragment F4, Methyl isoquinoline-3-carboxylate]   M. smegmatis           µM          389
1            OCc1csc(-c2ccc(C(F)(F)F)cc2)n1   M. smegmatis           µM          235
2                Clc1ccc2nc(N3CCCNCC3)sc2c1   M. smegmatis           µM          221
3               Cc1n[nH]c(C)c1Oc1ccc(Cl)cc1   M. smegmatis           µM          198
4                      Oc1ccc(Oc2ccccc2)cc1   M. smegmatis           µM          250
5  N#Cc1ccc(O)cc1F [Fragment F22, 2-Fluoro-4-hydroxybenzonitrile]   M. smegmatis           µM          487

Please examine the following record next.
Identify measured MIC50 corresponding to Cc1cc2cc(N)ccc2[nH]1
401
